Here, each record is paired with measured cell viability data.
System: Vero E6
Assay: cell viability relative to DMSO; higher = less toxic
Details: 72 h; 1000 nM
Structures can show the parent of a compound that is named as a salt.

COMPOUND	TARGET	cell viability [%]
CCC(CC)C(c1ccc(Nc2nc3ccccc3s2)cc1)n1cncn1 (centres undefined) [talarozole]	Vero E6	99.1
CN1[C@@H]2C[C@@H](OC(=O)[C@H](CO)c3ccccc3)C[C@H]1[C@@H]1O[C@@H]12 [SCOPOLAMINE HYDROBROMIDE]	Vero E6	97.2
O=C1C[C@@H]2OCC=C3CN4CC[C@]56c7ccccc7N1[C@H]5[C@H]2[C@H]3C[C@H]46 [strychnine]	Vero E6	87.1
Cc1c(NC(=O)c2cc3c(s2)CCCC3)cccc1-c1cn(C)c(=O)c(Nc2ccc(C3C(=O)N(C)CCN3C)cc2)n1 (stereo in doubt) [GDC-0834]	Vero E6	97.4

---

Tested on: HepG2
Test: cell viability relative to DMSO; higher = less toxic
Conditions: 72 h; 10000 nM
MEASURED_METRIC: cell viability

COMPOUND	TARGET	MEASURED_METRIC	ENDPOINT_RESULT
CN1CCN(CCCN2c3ccccc3Sc3ccc(C(F)(F)F)cc32)CC1 [trifluoperazine]	HepG2	cell viability	56.6%
COc1cc(Nc2nc3ccccc3nc2NS(=O)(=O)c2ccc(NC(=O)c3ccc(C)c(OC)c3)cc2)cc(OC)c1	HepG2	cell viability	89.7%
C=CCNc1nc(NCC=C)nc(N2CCN(C(c3ccc(F)cc3)c3ccc(F)cc3)CC2)n1 [almitrine]	HepG2	cell viability	61%
O=C1[C@H]2CCCC[C@H]2C(=O)N1CCCCN1CCN(c2nsc3ccccc23)CC1 [perospirone]	HepG2	cell viability	86.1%
CC(C)OC(=O)CNC(=O)[C@H](CS)NC(=O)CC[C@H](N)C(=O)O [glutathione-monoisopropyl-ester]	HepG2	cell viability	97.3%

---

Tested on: U2OS
Assay: cell viability relative to DMSO; higher = less toxic
Settings: 72 h; 10000 nM

COMPOUND	QUANTITY_UNIT	cell viability
C[C@H](Oc1ccc(S(C)(=O)=O)cc1C(=O)N1CCN(c2ncc(C(F)(F)F)cc2F)CC1)C(F)(F)F	%	101
CC(C)(C)CC(=O)Nc1c(F)cc(C(=O)/N=c2\sccn2COP(=O)(O)O)cc1F	%	95.5
C[C@@H]1CCO[C@H]2Cn3cc(C(=O)NCc4ccc(F)cc4F)c(=O)c(O)c3C(=O)N12	%	98.5
CN(C)Cc1ccc(-c2nc3cccc4c3n2CCNC4=O)cc1	%	99.8
Cc1cc(C)c(/C=C2\C(=O)Nc3ccccc32)[nH]1	%	97.4
COCCCC/C(=N\OCCN)c1ccc(C(F)(F)F)cc1	%	98.5
CCNCC(O)c1cccc(O)c1 (stereo not drawn)	%	95.7
COC(=O)C1=C(C)N(C)C(C)=C(C(=O)OC)C1c1ccc(C(F)(F)F)cc1	%	103

---

Here, each record is paired with measured cell viability data.
System: Calu-3
Assay: cell viability relative to DMSO; higher = less toxic
Details: 72 h; 10 nM
MEASURED_METRIC: cell viability (%)

COMPOUND	ENDPOINT_RESULT
O=C(O)c1cccnc1 [niacin]	103
C[C@H]1C[C@@H]2[C@H]([C@@H](O)C[C@@]3(C)[C@H]2CC[C@]3(O)C(=O)CO)[C@@]2(C)C=CC(=O)C=C12 [methylprednisolone]	102
CCN(CC)c1ccc(/C=N/NC(=O)c2ccc(O)cc2)cc1 [DY131]	91.5
O=C(O)c1nc(=O)[nH]c(=O)[nH]1 [oxonic-acid]	106
Cn1c(=O)c2c(ncn2CC(=O)O)n(C)c1=O [acefylline]	101
Cc1c(N2C(=O)[C@@H]3[C@H](O)CCN3C2=O)ccc(C#N)c1Cl	101
Cc1ccccc1C(=O)Nc1ccc(C(=O)N2CCCC(O)c3cc(Cl)ccc32)c(C)c1 (stereo unspecified) [tolvaptan]	86.3
CC(=O)NO [acetohydroxamic-acid]	98.8
Cc1ccccc1-n1c(CF)nc2ccc(N)cc2c1=O [afloqualone]	96.8
O=C1c2ccccc2C(=O)C1c1ccc(Cl)cc1 [chlorindione]	103
O=C(NCCCNc1nc(Nc2cccc(NC(=O)N3CCCC3)c2)ncc1I)c1cccs1 [BX-795]	97.3
CN(C)CC[C@@H](c1ccc(Cl)cc1)c1ccccn1 [chlorphenamine]	95.2
CCC(C)(C)c1ccc(CC(C)CN2C[C@@H](C)O[C@@H](C)C2)cc1 (stereo partly specified) [amorolfine]	109
CC(=O)Oc1ccccc1C(=O)O [aspirin]	90.1
O=C(Nc1ccc([N+](=O)[O-])cc1Cl)c1cc(Cl)ccc1O [niclosamide]	98.4
O=C(OCCO)c1ccccc1O [2-hydroxyethyl-salicylate]	95.5
CC(CN1c2ccccc2Sc2ccccc21)N(C)C (stereo unspecified) [promethazine]	103
Cc1onc(-c2ccccc2)c1C(=O)N[C@@H]1C(=O)N2[C@@H]1SC(C)(C)[C@@H]2C(=O)O [oxacillin]	104
CCC(=O)O[C@@](Cc1ccccc1)(c1ccccc1)[C@@H](C)CN(C)C [levopropoxyphene]	90.1
CC(=O)N[C@@H](CCC(N)=O)C(=O)O [aceglutamide]	89.8
CN(C)Cc1ccc(-c2nc3cccc4c3n2CCNC4=O)cc1	90.3
C=Cc1c(C)c2cc3nc(c(CC(=O)O)c4[n-]c(cc5nc(cc1[n-]2)C(C)=C5CC)c(C)c4C(=O)O)[C@@H](CCC(=O)O)[C@@H]3C.[Cu+2] [chlorophyllin-copper]	85.4
O=C(N/N=C/c1ccc([N+](=O)[O-])o1)c1cc([N+](=O)[O-])cc([N+](=O)[O-])c1O [nifursol]	102
O=C1[C@H]2CCCC[C@H]2C(=O)N1CCCCN1CCN(c2nsc3ccccc23)CC1 [perospirone]	101
O=C(N[C@@H]1CC[C@@H](c2cccc(F)c2F)CN(CC(F)(F)F)C1=O)N1CCC(n2c(=O)[nH]c3ncccc32)CC1 [telcagepant]	98.1
OC[C@@H](O)[C@@H](O[C@@H]1O[C@H](CO)[C@H](O)[C@H](O)[C@H]1O)[C@H](O)[C@@H](O)CO [D-LACTITOL MONOHYDRATE]	94.9
COC(=O)C[C@H]1CC(c2ccc(O)cc2)=NO1 [ISO-1]	109
CC(C)(O)CC(=O)O [beta-hydroxy-beta-methylbutyrate]	100
CN(C)CCOC1=Cc2ccccc2Sc2ccc(Cl)cc21 [zotepine]	85.3
CCOc1cc(N)c(Cl)cc1C(=O)NCC1CN(Cc2ccc(F)cc2)CCO1 (stereo unspecified) [mosapride]	87.4
C[C@H](c1ccc2ccc(OC3CCC(C(F)(F)F)CC3)c(C(F)(F)F)c2c1)N1C2CCC1CC(C(=O)O)C2 (stereo partly specified) [autotaxin-modulator-1]	97.6
CN[C@@H]1[C@H](O)[C@H](NC)[C@H]2O[C@@]3(O)C(=O)C[C@@H](C)O[C@H]3O[C@@H]2[C@H]1O [spectinomycin]	100
CCCN(CCC)S(=O)(=O)c1ccc(C(=O)O)cc1 [probenecid]	106
Cc1cc(O)cc(C)c1Cl [chloroxylenol]	108
CCOc1cc(C(=O)N2CCC(N3CCN(C)CC3)CC2)ccc1Nc1ncc2c(n1)N(C1CCCC1)c1ccccc1C(=O)N2C [XMD17-109]	87.2
O=C(O)c1nn(Cc2ccc(Cl)cc2Cl)c2ccccc12 [lonidamine]	96.2

---

Tested on: HepG2
Test: cell viability relative to DMSO; higher = less toxic
Conditions: 72 h; 100 nM
Here, each record is paired with measured cell viability data.
MEASURED_METRIC: cell viability (%)

COMPOUND	TARGET	MEASURED_METRIC	ENDPOINT_RESULT
C#C[C@]1(OC(C)=O)CC[C@H]2[C@@H]3CCC4=CC(=NO)CC[C@@H]4[C@H]3CC[C@@]21CC (mixture of isomers) [norgestimate]	HepG2	cell viability	107
CN1C(=O)CC(C)(c2ccccc2)C1=O (stereo not given) [methsuximide]	HepG2	cell viability	101
O=C1NC(=O)c2c1c1c3ccccc3n3c1c1c2c2ccccc2n1C1CCC3O1	HepG2	cell viability	98.8
CCOc1nc2cccc(C(=O)O)c2n1Cc1ccc(-c2ccccc2-c2nnn[nH]2)cc1	HepG2	cell viability	106
CC(=O)N[C@@H](Cc1c[nH]c2ccccc12)C(=O)OCc1cc(C(F)(F)F)cc(C(F)(F)F)c1	HepG2	cell viability	105

---

System: Caco-2
Test: cell viability relative to DMSO; higher = less toxic
Conditions: 72 h; 10000 nM
Here, each record is paired with measured cell viability data.
MEASURED_METRIC: cell viability (%)

COMPOUND	TARGET	ENDPOINT_RESULT
CN1CC(=O)NC1=N	Caco-2	99.1
CCO[C@H]1O[C@@H]2O[C@@]3(C)CC[C@H]4[C@H](C)CC[C@@H]([C@H]1C)[C@@]24OO3	Caco-2	91.5
COC(c1ccccc1)(c1ccccc1)[C@H](Oc1nc(C)cc(C)n1)C(=O)O	Caco-2	90.5
C#Cc1cncc([C@@H]2CCCN2C)c1	Caco-2	97.7
Nc1nc(=O)n([C@H]2C[C@H](O)[C@@H](CO)O2)cc1Cl	Caco-2	84.6
C[C@@H]1CCO[C@H]2Cn3cc(C(=O)NCc4ccc(F)cc4F)c(=O)c(O)c3C(=O)N12	Caco-2	88.2
Cn1c(=O)cc(N2CCC[C@@H](N)C2)n(Cc2cc(F)ccc2C#N)c1=O	Caco-2	95.6
CC(=O)O[C@]1(C(C)=O)CC[C@H]2[C@@H]3C[C@H](C)C4=CC(=O)CC[C@]4(C)[C@H]3CC[C@@]21C [medroxyprogesterone-acetate]	Caco-2	95.8
